# target.or.test.system: TDO2 (Homo sapiens, UniProt P48775)
# Construct: decreased levels of NFK in SW48 cells (high TDO expressing cells)
# Sequence (P48775 whole entry): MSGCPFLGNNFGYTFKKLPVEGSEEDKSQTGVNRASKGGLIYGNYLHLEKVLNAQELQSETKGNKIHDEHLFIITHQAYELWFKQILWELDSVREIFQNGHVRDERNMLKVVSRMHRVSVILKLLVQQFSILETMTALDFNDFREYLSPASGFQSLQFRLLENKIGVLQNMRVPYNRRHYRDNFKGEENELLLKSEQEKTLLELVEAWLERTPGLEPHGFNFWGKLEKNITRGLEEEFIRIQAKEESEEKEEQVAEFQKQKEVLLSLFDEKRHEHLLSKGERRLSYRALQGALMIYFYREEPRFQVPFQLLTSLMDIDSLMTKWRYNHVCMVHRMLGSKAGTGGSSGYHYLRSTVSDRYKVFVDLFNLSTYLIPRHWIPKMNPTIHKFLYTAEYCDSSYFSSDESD
# test.protocol: TDO2 cell assay (NFK GreenScreen, SW48 cells)
# Type: cell-based
# measurement.context: SW48 cells (high TDO expressing), 200 uM tryptophan, 24 hours; Table 3; read-out: TDO2 Cell Fluor EC50
measured.parameter: EC50 (µM)

P. OC1c2ccnn2CCC1C1c2ccccc2-c2cncn21 (single isomer, unassigned) [Example 56b]
Q. CC1(C)OCC(C2c3ccccc3-c3cncn32)C1O (single isomer, unassigned) [Example 85c]
Incoming: Returns: the argument ( P or Q ) having the larger EC50. Select an item and report its label.
Outgoing: Q
(Q: 11 µM, P: 0.37 µM)

1. CS(=O)(=O)N1CCC2(CCC(C3c4ccccc4-c4cncn43)C2O)CC1 (single isomer, unassigned) [Example 180c]
2. NS(=O)(=O)c1ccc2c(c1)C(O)C(C1c3ccccc3-c3cncn31)CC2 (single isomer, unassigned) [Example 105d]
Incoming: Returns: the argument ( 1 or 2 ) having the larger EC50. Select an item and report its label.
Outgoing: 1

----------
# target.or.test.system: TDO2 (Homo sapiens)
# Construct: decreased levels of NFK in SW48 cells (high TDO expressing cells)
# test.protocol: TDO2 cell assay (NFK GreenScreen, SW48 cells)
# Type: cell-based
# measurement.context: SW48 cells (high TDO expressing), 200 uM tryptophan, 24 hours; Table 3; read-out: TDO2 Cell Fluor EC50
pEC50: −log10 of the molar value.
measured.parameter: pEC50

// worked examples, pEC50 included
{"molecule": "OC1(C2c3ccccc3-c3cncn32)CCOC1 (single isomer, unassigned) [Example 129c]", "target.or.test.system": "TDO2 (Homo sapiens)", "measured.value": 5.35}
{"molecule": "OC1c2cncn2CC[C@H]1[C@H]1c2ccccc2-c2cncn21 (stereo in doubt) [Example 07c]", "target.or.test.system": "TDO2 (Homo sapiens)", "measured.value": 6.37}
{"molecule": "O[C@H]1c2c(Cl)cnn2CC[C@H]1[C@H]1c2ccccc2-c2cncn21 [Example 160b]", "target.or.test.system": "TDO2 (Homo sapiens)", "measured.value": 6.70}

I. NC(=O)c1ccc2c(c1)C(O)C(C1c3ccccc3-c3cncn31)CC2 (single isomer, unassigned) [Example 122b]
II. OC1c2cc(CF)nn2CCC1C1c2ccccc2-c2cncn21 (single isomer, unassigned) [Example 95b]
III. OC1c2ccccc2CC1C1c2ccccc2-c2cncn21 (single isomer, unassigned) [Example 19a]
IV. Nc1ccc2c(n1)CCC(C1c3ccccc3-c3cncn31)C2O (single isomer, unassigned) [Example 121a]
Incoming: Hello, I need these entries ordered by pEC50, highest reading first. Thanks! Reply with the item labels sorted in the order that was asked for.
Outgoing: II, IV, III, I

----------
# pEC50 annotations
# target.or.test.system: TDO2 (Homo sapiens, UniProt P48775)
# Construct: decreased levels of NFK in SW48 cells (high TDO expressing cells)
# test.protocol: TDO2 cell assay (NFK GreenScreen, SW48 cells)
# Format: cell-based
# measurement.context: SW48 cells (high TDO expressing), 200 uM tryptophan, 24 hours; Table 3; read-out: TDO2 Cell Fluor EC50
pEC50: −log10 of the molar value.

{"compound": "CS(=O)(=O)c1ccc2c(c1)OCC(C1c3ccccc3-c3cncn31)C2O (single isomer, unassigned) [Example 91h]", "target.or.test.system": "TDO2 (Homo sapiens, UniProt P48775)", "measured.value": "< 4.60"}
{"compound": "NS(=O)(=O)N1CCC2(CC1)CC(C1c3ccccc3-c3cncn31)C2O (single isomer, unassigned) [Example 181b]", "target.or.test.system": "TDO2 (Homo sapiens, UniProt P48775)", "measured.value": "< 4.60"}

Incoming: // fetch TDO2 (Homo sapiens, UniProt P48775) pEC50 for Cc1cc2c(cn1)C(O)C(C1c3ccccc3-c3cncn31)C2 (single isomer, unassigned) [Example 59d]
Outgoing: < 4.60

----------
# target.or.test.system: TDO2 (Homo sapiens, UniProt P48775)
# Construct: decreased levels of NFK in SW48 cells (high TDO expressing cells)
# test.protocol: TDO2 cell assay (NFK GreenScreen, SW48 cells)
# Format: cell-based
# measurement.context: SW48 cells (high TDO expressing), 200 uM tryptophan, 24 hours; Table 3; read-out: TDO2 Cell Fluor EC50
pEC50: −log10 of the molar value.
measured.parameter: pEC50

// worked examples, pEC50 included
{"compound": "OC1CCCOCC1C1c2ccccc2-c2cncn21 (single isomer, unassigned) [Example 86b]", "target.or.test.system": "TDO2 (Homo sapiens, UniProt P48775)", "pEC50": 6.28}
{"compound": "OC1CCCCC1C1c2ccccc2-c2cncn21 (single isomer, unassigned) [Example 03f]", "target.or.test.system": "TDO2 (Homo sapiens, UniProt P48775)", "pEC50": 6.52}

A. NS(=O)(=O)c1ccc2c(c1)CCC(C1c3ccccc3-c3cncn31)C2O (single isomer, unassigned) [Example 100a]
B. OC1(C2c3ccccc3-c3cncn32)CCOC1 (single isomer, unassigned) [Example 129d]
Incoming: Returns: the argument ( A or B ) having the larger pEC50. Select an item and report its label.
Outgoing: A

----------
# target.or.test.system: TDO2 (Homo sapiens, UniProt P48775)
# Construct: decreased levels of NFK in SW48 cells (high TDO expressing cells)
# test.protocol: TDO2 cell assay (NFK GreenScreen, SW48 cells)
# Assay type: cell-based
# measurement.context: SW48 cells (high TDO expressing), 200 uM tryptophan, 24 hours; Table 3; read-out: TDO2 Cell Fluor EC50
pEC50: −log10 of the molar value.
measured.parameter: pEC50

// worked examples, pEC50 included
{"compound": "N#Cc1ccc2c(c1)C(O)C(C1c3ccccc3-c3cncn31)CC2 (single isomer, unassigned) [Example 113c]", "measured.parameter": "pEC50", "measured.value": 7.22}
{"compound": "CS(=O)(=O)c1ccc2c(c1)[C@@H](O)[C@H]([C@H]1c3ccccc3-c3cncn31)CC2 (single isomer, unassigned) [Example 142b]", "measured.parameter": "pEC50", "measured.value": 5.23}
{"compound": "CS(=O)(=O)c1ccc2c(c1)OCC(C1c3ccccc3-c3cncn31)C2O (single isomer, unassigned) [Example 91f]", "measured.parameter": "pEC50", "measured.value": 6.09}
{"compound": "CC1(C)C[C@@H](O)[C@@H]1[C@H]1c2ccccc2-c2cncn21 [Example 22b]", "measured.parameter": "pEC50", "measured.value": 7.80}
{"compound": "Nc1ccc2c(n1)CCC(C1c3ccccc3-c3cncn31)C2O (single isomer, unassigned) [Example 121c]", "measured.parameter": "pEC50", "measured.value": 6.66}
{"compound": "OC1C(C2c3ccc(F)cc3-c3cncn32)CC12CCOCC2 (single isomer, unassigned) [Example 109a]", "measured.parameter": "pEC50", "measured.value": 6.21}
{"compound": "OC1CC2(CC2)C1C1c2ccccc2-c2cncn21 (single isomer, unassigned) [Example 72f]", "measured.parameter": "pEC50", "measured.value": 4.96}
{"compound": "CCS(=O)(=O)N1CCC2(CCC(C3c4ccccc4-c4cncn43)C2O)CC1 (single isomer, unassigned) [Example 76e]", "measured.parameter": "pEC50", "measured.value": 6.60}
{"compound": "O[C@H]1CCCC[C@H]1[C@H]1c2ccccc2-c2cncn21 [Example 03a]", "measured.parameter": "pEC50", "measured.value": 7.11}
{"compound": "OC1c2cncnc2CCC1C1c2ccccc2-c2cncn21 (single isomer, unassigned) [Example 94d]", "measured.parameter": "pEC50", "measured.value": 6.89}

P. O[C@H]1c2ccncc2CC[C@H]1[C@H]1c2ccccc2-c2cncn21 (single isomer, unassigned) [Example 08h]
Q. OC1c2ccnn2CCCC1C1c2ccccc2-c2cncn21 (single isomer, unassigned) [Example 133c]
R. CS(=O)(=O)c1ccc2c(c1)OCC(C1c3ccccc3-c3cncn31)C2O (single isomer, unassigned) [Example 91a]
Incoming: Sort low-to-high on pEC50, please. Reply with the item labels sorted in the order that was asked for.
Outgoing: Q, R, P
(Q: 5.22, R: 5.55, P: 7.00)

a. CS(=O)(=O)c1ccc2c(c1)CCC(C1c3ccccc3-c3cncn31)C2O (single isomer, unassigned) [Example 36h]
b. O[C@@H]1CN(CC(F)(F)F)CC[C@H]1[C@H]1c2ccccc2-c2cncn21 [Example 82b]
c. OC1(C2c3ccccc3-c3cncn32)CC(F)(F)C1 (centres unmarked) [Example 50]
Incoming: Sort low-to-high on pEC50, please. Reply with the item labels sorted in the order that was asked for.
Outgoing: c, a, b
(c: 5.59, a: 6.01, b: 6.48)

----------
# target.or.test.system: TDO2 (Homo sapiens, UniProt P48775)
# Construct: decreased levels of NFK in SW48 cells (high TDO expressing cells)
# test.protocol: TDO2 cell assay (NFK GreenScreen, SW48 cells)
# Assay type: cell-based
# measurement.context: SW48 cells (high TDO expressing), 200 uM tryptophan, 24 hours; Table 3; read-out: TDO2 Cell Fluor EC50
measured.parameter: EC50 (µM)

{"molecule": "O[C@@H]1CC[C@@H]1[C@@H]1c2ccccc2-c2cncn21 [Example 01a]", "target.or.test.system": "TDO2 (Homo sapiens, UniProt P48775)", "u": "µM", "EC50": 14}

A. NC(=O)c1ccc2c(c1)CC[C@H](C1c3ccccc3-c3cncn31)[C@H]2O (stereo in doubt) [Example 60c]
B. NC(=O)C1([C@@H](O)[C@H]2c3ccccc3-c3cncn32)CC1 [Example 165a]
C. O=S1(=O)CC(C2c3ccccc3-c3cncn32)C(O)c2ccccc21 (racemic) [Example 96a]
Incoming: Sort low-to-high on EC50, please. Reply with the item labels sorted in the order that was asked for.
Outgoing: C, A, B
(C: 0.89 µM, A: 2.4 µM, B: 16 µM)
